Recorded values, source patent US9522881B2.

target: SHP2 (Homo sapiens (Human)); experiment: SHP2-catalyzed hydrolysis of p-nitrophenyl phosphate (pNPP); format: biochemical
Sequence (Q06124 whole entry, looked up): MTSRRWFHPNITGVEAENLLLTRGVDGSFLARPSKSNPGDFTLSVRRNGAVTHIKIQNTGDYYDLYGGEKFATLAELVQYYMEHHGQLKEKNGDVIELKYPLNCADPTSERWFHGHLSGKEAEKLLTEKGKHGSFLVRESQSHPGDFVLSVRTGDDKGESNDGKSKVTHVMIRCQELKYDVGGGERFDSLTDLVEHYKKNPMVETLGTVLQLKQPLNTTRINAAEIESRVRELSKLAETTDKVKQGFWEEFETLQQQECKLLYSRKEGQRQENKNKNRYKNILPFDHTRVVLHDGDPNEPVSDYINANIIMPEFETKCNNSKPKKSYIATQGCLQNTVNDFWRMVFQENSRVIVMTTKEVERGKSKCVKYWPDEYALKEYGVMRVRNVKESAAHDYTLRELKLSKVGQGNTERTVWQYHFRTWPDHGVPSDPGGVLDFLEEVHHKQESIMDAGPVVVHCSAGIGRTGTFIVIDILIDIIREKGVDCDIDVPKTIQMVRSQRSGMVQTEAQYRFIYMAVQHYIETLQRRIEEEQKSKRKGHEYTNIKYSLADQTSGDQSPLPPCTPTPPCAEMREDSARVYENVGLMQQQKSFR
Endpoint Name: SHP2 inhibition, in words

molecule="Cn1c(-c2cccc(NC(=O)C(=O)Nc3cccc(OCc4ccccc4)c3)c2)c(I)c2cc(C(=O)O)c(O)cc21 [11a-6]" recorded_value=submicromolar
molecule="Cn1c(-c2cccc(NC(=O)C(=O)Nc3cccc(-c4ccccc4)c3)c2)c(I)c2cc(C(=O)O)c(O)cc21 [11a-5]" recorded_value="strongly inhibited"
molecule="Cn1c(-c2cccc(NC(=O)C(=O)Nc3ccc(OCc4ccccc4)c(Cl)c3)c2)c(I)c2cc(C(=O)O)c(O)cc21 [11a-3]" recorded_value=submicromolar
molecule="Cn1c(-c2cccc(NC(=O)C(=O)Nc3ccc(-c4ccccc4)cc3)c2)c(I)c2cc(C(=O)O)c(O)cc21 [11a-2]" recorded_value="strongly inhibited"
